Reference for the values: PubChem BioAssay AID1273

Experiment: inhibitors of insulin promoter-driven GFP, primary screen, imaging, TRM-6 cells, eGFP reporter, cell count (AID 1273)
Conditions: at 2 µM, reporter expression induced with tamoxifen
Screen size: about 130,000 compounds; about 1,200 (0.92%) were called active.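 How the source made its calls: active means inhibition above the mean plus 3 SD, with well images judged a real hit on visual review (cut at about 60% in these data, passing the limit was not always enough); inconclusive means inhibition over the cutoff but images rejected on review; inactive means inhibition not above the cutoff.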 Many of the other results were omitted from the sample, so actives are more common in it than they were.
Use one of these outcomes when replying: 1 (active), -1 (inactive)

Worked examples, 6 compounds total:
• Cc1ccc(C(=O)Cn2cccn2)cc1 = -1
• Cc1ccsc1CNn1cnnc1SCc1ccccc1F = 1
• Brc1ccc(-c2nnc(-c3ccccc3)o2)o1 = -1
• CN(C)c1ccc(/C=N\S(=O)(=O)c2ccccc2)cc1 = -1
• CCC(=O)N1CCC(C(N)=O)(N2CCCCC2)CC1 = -1
• NC(=O)c1ccc(CN2CCC(Cc3ccccc3)CC2)cc1 = -1

Input line: Hi, sorry to bother you, what did the test record for Cc1ccsc1C(=O)N/N=C/c1ccc([N+](=O)[O-])cc1 ?
Output line: -1

Input line: Test call for this compound, please: CCOC12CC(C)(C)CC(C)(CC3=C1C(=O)CC(C)(C)C3)C2 (configuration not stated)
Output line: 1

Input line: How did this test come out for COc1ccc(C(=O)N2CCC(C(=O)Nc3ccc(C)cc3)CC2)cc1 ?
Output line: -1

Input line: Recorded call for O=c1c([N+](=O)[O-])cccn1Cc1ccc(F)cc1Cl ?
Output line: 1

Input line: For O=C(CC1C(=O)NCCN1Cc1ccc(-c2ccccc2)cc1)NCc1ccncc1 (configuration not stated) , which call appears in the assay record?
Output line: -1

Input line: Please state the recorded outcome for this compound: CCC1(CC)NC(=O)N(Cc2nc3ccccc3s2)C1=O
Output line: -1

====

Assay: inhibitors of insulin promoter-driven GFP, primary screen, imaging, TRM-6 cells, eGFP reporter, cell count (AID 1273);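 on normalized cell count: cells exposed to compound for 48 h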
Details: at 2 µM, reporter expression induced with tamoxifen; measured here: cell count, toxicity
Among all 130,000 compounds or so, about 1,200 (0.92%) were called active. Only a selection was taken, and actives are over-represented in it overall.
quantity: normalized cell count

- Cc1ccc(SCC(=O)Nc2ccc3c(c2)OCCO3)cc1: 137%
- Cc1nnc(SCC(=O)N2CCN(c3ccccc3)CC2)n1-c1ccccc1: 117%
- Cc1ccc(S(=O)(=O)c2ccc(Oc3ccccc3)cc2)cc1: 116%
- Cc1cccc(N2C(=O)c3cccnc3C2=O)c1: 66.7%
- CCOc1ccc(CCN2C(=O)c3cccnc3C2=O)cc1OCC: 94.8%

Input line: I have this molecule here, Cc1onc(C(=O)NN)c1C(=O)N1CCN(C(c2ccccc2)c2ccccc2)CC1 , and I need its recorded normalized cell count.
Output line: 29.3%

Input line: Data request, read-out normalized cell count, for O=C(CSc1nnnn1-c1ccc2c(c1)CCC2)Nc1ccc2c(c1)OCCO2
Output line: 88.2%

Input line: Which measured normalized cell count value corresponds to Cc1ccc(O/C=C2\OC(=O)c3ccccc32)cc1 ?
Output line: 93%

Input line: Request the reported normalized cell count associated with Cc1ccccc1NC(=O)Cc1nnc(SCC(=O)N2CCN(c3ccccc3)CC2)n1C
Output line: 112%

Input line: Would you kindly share the measured normalized cell count for Cc1onc(-c2ccccc2)c1C(=O)N1CCOCC1 ?
Output line: 78.8%

Input line: Give the measured normalized cell count of Cc1ccccc1NC(=O)Cn1c(=O)n(CC2CCCO2)c(=O)c2ccccc21 (stereo unspecified) .
Output line: 106%

====

Experiment: inhibitors of insulin promoter-driven GFP, primary screen, imaging, TRM-6 cells, eGFP reporter, cell count (AID 1273)
Details: at 2 µM, reporter expression induced with tamoxifen; stronger effect = higher value
The campaign covered roughly 130,000 compounds. About 1,200 (0.92%) were called active. Only a selection was taken, and actives are over-represented in it overall.
quantity: inhibition (%)
Please state the figure in %; there is no need to write the unit.

Use the examples below as a reference point.
• CCc1ccc(NC(=O)c2ccc(Cn3cc([N+](=O)[O-])cn3)cc2)cc1 = 6.25
• Cc1nn(-c2ccccc2)c(Cl)c1/C=C/C(=O)c1ccc(O)cc1 = -70.4
• COc1cccc(N2CCN(C3CC(=O)N(c4ccc(Cl)cc4)C3=O)CC2)c1 (stereo not drawn) = 30.8
• Cn1cc([N+](=O)[O-])c(C(=O)Nc2cnn(Cc3ccc(F)cc3)c2)n1 = 69.2
• CN(C)c1ccc(C=NCCc2ccc(S(N)(=O)=O)cc2)cc1 = 31.2
• Cc1ccc(C(=O)/C=C/c2c(C)nn(-c3ccccc3)c2Cl)cc1 = -16.7
• CC(OC(=O)CCc1nc(=O)c2ccccc2n1C)C(=O)NCc1ccc2c(c1)OCO2 (stereo not drawn) = -58.8
• CC(Oc1ccc(Cl)cc1)C(=O)OCC(=O)Nc1ncc(Cl)cc1Cl (stereo not drawn) = 20

Input line: Consider the molecule Cc1nn(-c2ccccc2)c(C)c1/C=C/C(=O)OC(C)C(N)=O (stereo not drawn) and give its measured inhibition.
Output line: 68.8

Input line: Give the measured inhibition of Cc1ccccc1N1C(=O)C(Oc2ccc(Cl)cc2)C1CNCC1CCCO1 (stereo not drawn) .
Output line: -11.8

Input line: Requested read-out: inhibition. Entry: O=C(CSc1nnnn1-c1ccc2c(c1)CCC2)Nc1ccc2c(c1)OCCO2
Output line: 28.6

Input line: Reported inhibition, molecule CC1(C)CC(=O)c2cnc3nc4ccccc4n3c2C1 : ____
Output line: 76.2

Input line: Using the record for CCOC(=O)Cn1nnnc1C , report its inhibition.
Output line: 26.7

Input line: What value of inhibition has been reported for the following molecule? Cc1ccc2nc(Nc3ncc4c(n3)CC(C)(C)CC4=O)nc(C)c2c1
Output line: -25

Input line: Fill in: inhibition of O=C(CSc1nnnn1C1CCCC1)Nc1ccc2c(c1)OCCO2 is ___
Output line: 73.3

Input line: What inhibition value was documented for this molecule, C=CCSc1nc2ccccc2[nH]1 ?
Output line: 81.8

Input line: # query: inhibition of entry COc1ccc(OC)c(NC(=O)CCN2CCC(C)CC2)c1
Output line: 34.2

Input line: Please report the recorded inhibition for COc1cc(NC(=O)COC(=O)c2cnc(C)cn2)c(C)cc1[N+](=O)[O-] .
Output line: 27.3

Input line: What does the data say about its inhibition? Entry: Cc1ccc(SCC(=O)Nc2ccc3c(c2)OCCO3)cc1
Output line: 20.6

Input line: What value of inhibition has been recorded for this entry: Cc1nnsc1C(=O)N/N=C/c1cccc(C(F)(F)F)c1
Output line: -86.7

Input line: Look up inhibition for this molecule: CC(C)(C)c1cc(=O)n2c(nc3ccccc32)[nH]1
Output line: 29.4

Input line: Fill blank: measured inhibition of the molecule COc1ccc(N2CCN(C3CC(=O)N(c4ccc5c(c4)OCCO5)C3=O)CC2)cc1 (stereo not drawn) is ____.
Output line: 91.7

Input line: Which inhibition is reported for this molecule? COc1cccc(NC(=O)c2ccc(Cn3cc([N+](=O)[O-])cn3)o2)c1
Output line: -11.1

====

Test: inhibitors of insulin promoter-driven GFP, primary screen, imaging, TRM-6 cells, eGFP reporter, cell count (AID 1273);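 on normalized cell count: cells exposed to compound for 48 h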
Conditions: at 2 µM, reporter expression induced with tamoxifen; measured here: cell count, toxicity
The whole screen tested about 130,000 compounds, of which about 1,200 (0.92%) were called active. What follows is part of a selection rich in actives, with near analogues and random picks from the rest.
quantity: normalized cell count (%)
Express your answer in %, writing the number without its unit.

Input line: Would you kindly share the measured normalized cell count for Cc1ccc(O)c(CCc2ccccc2)n1 ?
Output line: 94.3

====

Assay: inhibitors of insulin promoter-driven GFP, primary screen, imaging, TRM-6 cells, eGFP reporter, cell count (AID 1273);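 on normalized cell count: cells exposed to compound for 48 h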
Conditions: at 2 µM, reporter expression induced with tamoxifen; measured here: cell count, toxicity
The campaign covered roughly 130,000 compounds. About 1,200 (0.92%) were called active. The list comes from a sample in which actives are over-represented; it also holds close analogues and randomly drawn compounds.
quantity: normalized cell count (%)
The answer is to be given in %; state only the numeric part.

- CCOc1ccc(C(C)=O)cc1COC(=O)c1cnc(Cl)c(Cl)c1: 144

Input line: I would be grateful if you could share the reported normalized cell count for CCCOc1ccc(NC(=O)C2CCCNC2=O)cc1 (stereo not given) .
Output line: 82.1

Input line: What value of normalized cell count has been recorded for this entry: CCSc1ccccc1C(=O)Nc1ccc2c(c1)OCO2
Output line: 84.3

====

Test: inhibitors of insulin promoter-driven GFP, primary screen, imaging, TRM-6 cells (human fetal islet line), eGFP reporter, cell count (AID 1273)
Conditions: at 2 µM, reporter expression induced with tamoxifen
The campaign covered roughly 130,000 compounds. About 1,200 (0.92%) were called active.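 Rule for the calls: active = inhibition above the mean plus 3 SD, with well images judged a real hit on visual review (cut at about 60% in these data, passing the limit was not always enough); inconclusive = inhibition over the cutoff but images rejected on review; inactive = inhibition not above the cutoff.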 For the sample, actives were picked, then their nearest neighbours and some compounds at random.
Choose the fitting class; nothing outside 1 (yes) (active), 0 (no) (inactive) is accepted.

- C1CC1Cc1noc(CN2CCN(CC3CC3)CC2)n1: 0 (no)

Please examine the following record next.
Input line: Write down the call the test reported for this compound. Item: Cc1ccc(CNC(=O)CCNS(=O)(=O)c2ccc(Br)s2)cc1
Output line: 0 (no)
